- test.system: Beta-3 adrenergic receptor (Rattus norvegicus)
- assay.details: Agonistic activity against rat Beta-3 adrenergic receptor as cAMP accumulation in CHO cells expressing beta3-AR
observed.property: log10 EC50 (log10 of the value in nM)
Please keep in mind that the values are log10 of EC50 expressed in nM.

{"compound": "C[C@@H](Cc1c[nH]c2c(OCC(=O)O)cccc12)NC[C@H](O)c1cccc(Cl)c1", "log10 EC50": 0.08}
{"compound": "C[C@H](Cc1c[nH]c2ccccc12)NC[C@H](O)c1cccc(Cl)c1", "log10 EC50": -0.44}
{"compound": "COc1cccc2c(C[C@H](C)NC[C@H](O)c3cccc(Cl)c3)c[nH]c12", "log10 EC50": 0.81}
{"compound": "C[C@@H](Cc1c[nH]c2ccccc12)NC[C@H](O)c1cccc(Cl)c1", "log10 EC50": 1.11}
{"compound": "C[C@@H](Cc1c[nH]c2ccccc12)NC[C@@H](O)c1cccc(Cl)c1", "log10 EC50": 1.52}

Record C[C@H](Cc1c[nH]c2c(OCC(=O)O)cccc12)NC[C@H](O)c1cccc(Cl)c1 , field log10 EC50: -1.80

Record COc1cccc2c(C[C@@H](C)NC[C@H](O)c3cccc(Cl)c3)c[nH]c12 , field log10 EC50: -0.82

Record CC(Cc1c[nH]c2ccccc12)NCC(O)c1cccc(Cl)c1 (mixture of isomers) , field log10 EC50: -0.01

Record C[C@H](Cc1c[nH]c2ccccc12)NC[C@@H](O)c1cccc(Cl)c1 , field log10 EC50: 1.04
